Test system: S. aureus ATCC 6538P
Assay: direct antimicrobial activity (disc-diffusion, MIC, MBC)
Type: cell-based
Conditions: Staphylococcus aureus, ATCC6538P
Procedure: Direct antimicrobial activity against Gram-negative and Gram-positive bacterial strains, as well as against yeast, was examined as previously described by the disc-diffusion test, the MIC determination assay, the MBC (for bacteria), and the MFC (for yeasts) determination tests. All the above-mentioned tests were performed according to EUCAST [71, 72] and CLSI [73, 74, 75, 76, 77] recommendations. […]
Measured MIC of individual entries

Input: What value of MIC on S. aureus ATCC 6538P does "COc1c(B(O)O)cccc1B(O)O" have?
Output: > 400 µg/mL

Input: What value of MIC on S. aureus ATCC 6538P does "OB(O)c1c(F)c(F)c(B(O)O)c(F)c1F" have?
Output: > 400 µg/mL

Input: What value of MIC on S. aureus ATCC 6538P does "OB(O)c1ccc(B(O)O)s1" have?
Output: > 400 µg/mL

###

Assay: MTT-based viability assay
Type: cell-based
Conditions: human, MRC-5 human fibroblasts; 50 mg/L, 72 h; read-out: Viability of MRC-5 cells (% of viable cells ± SD)
Procedure: MRC-5 human fibroblasts (ECACC) were cultured in MEME, Minimum Essential Medium Eagle (Merck) supplemented with 10% fetal bovine serum (Merck), 2 mM l-glutamine, antibiotics (100 U/mL penicillin, 100 μg/mL streptomycin, Merck) and 1% non-essential amino acids (Merck). […] Optical densities were measured at 570 nm using a BioTek microplate reader. All measurements were carried out in three replicates, and the results were expressed as a percent of viable cells versus control cells.
endpoint: viability at 72 h, 50 mg/L (%)
Numeric answer only, unit % assumed.

Worked cases, viability at 72 h, 50 mg/L given:
OB(O)c1cc(B(O)O)cc(B(O)O)c1 [4a, benzene-1,3,5-triboronic acid]
87.9
O=Cc1cc(F)ccc1B(O)O [7b]
0.9

Input: Which measured viability at 72 h, 50 mg/L value corresponds to OB(O)c1cccc(B(O)O)c1 [2a] ?
Output: 73.1

Input: Which measured viability at 72 h, 50 mg/L value corresponds to OB(O)c1cc(B(O)O)c(B(O)O)s1 [5c, thiophene-2,3,5-triboronic acid] ?
Output: 85.6

Input: Which measured viability at 72 h, 50 mg/L value corresponds to OB(O)c1cc(I)c(B(O)O)cc1I [1j] ?
Output: 88.6

Input: Which measured viability at 72 h, 50 mg/L value corresponds to OB(O)c1ccc(F)cc1B(O)O [3c] ?
Output: 82.3

Values compiled from paper PMC10648349.
